Test system: Pseudomonas aeruginosa
Assay: Antimicrobial activity against Pseudomonas aeruginosa assessed as inhibition of microbial growth incubated for 24 hrs by microdilution method
Assay type: functional
Peptide text beside a SMILES is read from it.
Parameter MIC: see the listing below.
Expressed in µM, but write only the number.

Look over these answered cases.
[[record]]
compound = "CC[C@H](C)[C@H](NC(=O)[C@H](CCCNC(=N)N)NC(=O)[C@H](CCCCN)NC(=O)[C@H](CCCCN)NC(=O)[C@H](CC(C)C)NC(=O)CN)C(=O)N[C@@H](CCCCN)C(=O)N[C@@H](CCCCN)C(=O)N[C@@H](CC(C)C)C(=O)N[C@@H](CC(C)C)C(N)=O (H-GLKKRIKKLL-NH2)"
measured_result = 13

[[record]]
compound = "CC[C@H](C)[C@H](NC(=O)[C@H](Cc1ccccc1)NC(=O)[C@H](CCCCN)NC(=O)[C@H](CC(C)C)NC(=O)[C@H](CC(C)C)NC(=O)CN)C(=O)N[C@@H](CCCCN)C(=O)N[C@@H](CCCNC(=N)N)C(=O)N[C@@H](CC(C)C)C(=O)N[C@@H](CC(C)C)C(N)=O (H-GLLKFIKRLL-NH2)"
measured_result = 2.5

[[record]]
compound = "CC[C@H](C)[C@H](NC(=O)[C@H](CCCCN)NC(=O)[C@H](CC(C)C)NC(=O)[C@H](CC(C)C)NC(=O)CN)C(=O)N[C@H](C(=O)N[C@@H](CCCCN)C(=O)N[C@@H](CCCNC(=N)N)C(=O)N[C@@H](CC(C)C)C(=O)N[C@@H](CC(C)C)C(N)=O)[C@@H](C)CC (H-GLLKIIKRLL-NH2)"
measured_result = 2.6

[[record]]
compound = "CC[C@H](C)[C@H](NC(=O)[C@H](CCCCN)NC(=O)[C@H](CC(C)C)NC(=O)[C@H](CC(C)C)NC(=O)CN)C(=O)N[C@H](C(=O)N[C@@H](CCCCN)C(=O)N[C@@H](CCCCN)C(=O)N[C@@H](CC(C)C)C(=O)N[C@@H](CC(C)C)C(N)=O)[C@@H](C)CC (H-GLLKIIKKLL-NH2)"
measured_result = 2.5


Please examine the following record next.
Prompt: Form field: reported MIC of CC[C@H](C)[C@H](NC(=O)[C@H](CCCCN)NC(=O)[C@H](CCCCN)NC(=O)[C@H](CC(C)C)NC(=O)[C@H](CC(C)C)NC(=O)CN)C(=O)N[C@@H](CCCCN)C(=O)N[C@@H](CCCNC(=N)N)C(=O)N[C@@H](CC(C)C)C(=O)N[C@@H](CC(C)C)C(N)=O (H-GLLKKIKRLL-NH2)
Response: 5.9

---

System: Staphylococcus aureus
Assay: Antibacterial activity against Staphylococcus aureus ATCC 25923 assessed as reduction in bacterial growth incubated for 18 to 24 hrs by broth microdilution method
Type: functional
Conditions: time 18-24 hrs
Peptide text beside a SMILES is read from it.
Listed here are compounds together with their documented MIC.

Recorded MIC, per entry:
[[record]]
compound = "CC[C@H](C)[C@H](NC(=O)[C@H](CCCNC(=N)N)NC(=O)[C@H](CCCCN)NC(=O)[C@H](CC(C)C)NC(=O)[C@H](CC(C)C)NC(=O)[C@H](C)N)C(=O)N[C@@H](CCCCN)C(=O)N[C@H](C(=O)N[C@@H](CC(C)C)C(=O)N[C@@H](CC(C)C)C(N)=O)[C@@H](C)O (H-ALLKRIKTLL-NH2)"
readout_type = "MIC"
measured_result = "> 18 µM"

[[record]]
compound = "CC(C)C[C@H](NC(=O)[C@H](CC(C)C)NC(=O)[C@@H](NC(=O)[C@H](CCCCN)NC(=O)[C@H](C)NC(=O)[C@H](CCCNC(=N)N)NC(=O)[C@H](CCCCN)NC(=O)[C@H](CC(C)C)NC(=O)[C@H](CC(C)C)NC(=O)CN)[C@@H](C)O)C(N)=O (H-GLLKRAKTLL-NH2)"
readout_type = "MIC"
measured_result = "> 36.9 µM"

[[record]]
compound = "CC[C@H](C)[C@H](NC(=O)[C@H](C)NC(=O)[C@H](CCCCN)NC(=O)[C@H](CC(C)C)NC(=O)[C@H](CC(C)C)NC(=O)CN)C(=O)N[C@@H](CCCCN)C(=O)N[C@H](C(=O)N[C@@H](CC(C)C)C(=O)N[C@@H](CC(C)C)C(N)=O)[C@@H](C)O (H-GLLKAIKTLL-NH2)"
readout_type = "MIC"
measured_result = "9.4 µM"

[[record]]
compound = "CC[C@H](C)[C@H](NC(=O)[C@H](CCCNC(=N)N)NC(=O)[C@H](CCCCN)NC(=O)[C@H](CC(C)C)NC(=O)[C@H](CC(C)C)NC(=O)CN)C(=O)N[C@@H](CCCCN)C(=O)N[C@H](C(=O)N[C@@H](CC(C)C)C(=O)N[C@@H](C)C(N)=O)[C@@H](C)O (H-GLLKRIKTLA-NH2)"
readout_type = "MIC"
measured_result = "43.2 µM"


Prompt: Reported MIC, compound CC[C@H](C)[C@H](NC(=O)[C@H](CCCNC(=N)N)NC(=O)[C@H](C)NC(=O)[C@H](CC(C)C)NC(=O)[C@H](CC(C)C)NC(=O)CN)C(=O)N[C@@H](CCCCN)C(=O)N[C@H](C(=O)N[C@@H](CC(C)C)C(=O)N[C@@H](CC(C)C)C(N)=O)[C@@H](C)O (H-GLLARIKTLL-NH2) : ____
Response: 25.6 µM

Prompt: Entry CC[C@H](C)[C@H](NC(=O)[C@H](CCCNC(=N)N)NC(=O)[C@H](CCCCN)NC(=O)[C@H](C)NC(=O)[C@H](CC(C)C)NC(=O)CN)C(=O)N[C@@H](CCCCN)C(=O)N[C@H](C(=O)N[C@@H](CC(C)C)C(=O)N[C@@H](CC(C)C)C(N)=O)[C@@H](C)O (H-GLAKRIKTLL-NH2) : reported MIC = ?
Response: > 34.2 µM

Prompt: What does the data say about its MIC? Entry: CC[C@H](C)[C@H](NC(=O)[C@H](CCCNC(=N)N)NC(=O)[C@H](CCCCN)NC(=O)[C@H](CC(C)C)NC(=O)[C@H](CC(C)C)NC(=O)CN)C(=O)N[C@@H](CCCCN)C(=O)N[C@H](C(=O)N[C@@H](C)C(=O)N[C@@H](CC(C)C)C(N)=O)[C@@H](C)O (H-GLLKRIKTAL-NH2)
Response: 27.9 µM

---

HC50 at 1 h listing for selected compounds.
Experiment: Hemolytic activity against Red blood cells (unknown origin) incubated for 1 hr by spectrophotometric analysis
Type: toxicity, cell-based, Erythrocyte
Square brackets hold non-standard residues; d marks the D form. Peptide text beside a SMILES is read from it. 2Nal = N[C@@H](Cc1ccc2ccccc2c1)C(=O)O; Cha = N[C@@H](CC1CCCCC1)C(=O)O
Note: unit µM is implicit; provide only the numeric part.

[[record]]
compound = "CC(C)C[C@H](NC(=O)[C@H](CC(C)C)NC(=O)[C@@H](NC(=O)[C@H](CCCCN)NC(=O)[C@H](Cc1ccc2ccccc2c1)NC(=O)[C@H](CCCCN)NC(=O)[C@H](CCCCN)NC(=O)[C@H](CC(C)C)NC(=O)[C@H](CC1CCCCC1)NC(=O)CN)[C@@H](C)O)C(N)=O (H-G[Cha]LKK[2Nal]KTLL-NH2)"
readout_type = "HC50 at 1 h"
u = "µM"
measured_result = 15.3

[[record]]
compound = "CC[C@H](C)[C@H](NC(=O)[C@H](CCCNC(=N)N)NC(=O)[C@H](CCCCN)NC(=O)[C@H](CC(C)C)NC(=O)[C@H](CC(C)C)NC(=O)CN)C(=O)N[C@@H](CCCCN)C(=O)N[C@@H](CCCCN)C(=O)N[C@@H](CC(C)C)C(=O)N[C@@H](CC1CCCCC1)C(N)=O (H-GLLKRIKKL[Cha]-NH2)"
readout_type = "HC50 at 1 h"
u = "µM"
measured_result = 12.4


Next compound, HC50 at 1 h to be filled in.
Prompt: I am curious: what HC50 at 1 h value has been reported for CC(C)C[C@H](NC(=O)CN)C(=O)N[C@@H](CC(C)C)C(=O)N[C@@H](CCCCN)C(=O)N[C@@H](CCCCN)C(=O)N[C@@H](Cc1ccc2ccccc2c1)C(=O)N[C@@H](CCCCN)C(=O)N[C@H](C(=O)N[C@@H](CC(C)C)C(=O)N[C@@H](CC1CCCCC1)C(N)=O)[C@@H](C)O (H-GLLKK[2Nal]KTL[Cha]-NH2) ?
Response: 26.6

---

Test: Hemolytic activity in human RBC assessed as hemolysis
Assay type: toxicity, cell-based, Erythrocyte
Conditions: red blood cells
Peptide text beside a SMILES is read from it.
# maps each entry to its HC50
Write the value in µM as a bare number.

Worked cases, HC50 given:
[[record]]
compound = "CC[C@H](C)[C@H](NC(=O)[C@H](CCCNC(=N)N)NC(=O)[C@H](CCCCN)NC(=O)[C@H](CC(C)C)NC(=O)[C@H](CC(C)C)NC(=O)[C@@H](N)CCCCN)C(=O)N[C@@H](CCCCN)C(=O)N[C@H](C(=O)N[C@@H](CC(C)C)C(=O)N[C@@H](CC(C)C)C(N)=O)[C@@H](C)O (H-KLLKRIKTLL-NH2)"
readout_type = "HC50"
measured_result = 29.3

[[record]]
compound = "CC[C@H](C)[C@H](NC(=O)[C@H](CCCNC(=N)N)NC(=O)[C@H](CCCCN)NC(=O)[C@H](CC(C)C)NC(=O)[C@H](CC(C)C)NC(=O)[C@@H](N)CCCCN)C(=O)N[C@@H](CCCCN)C(=O)N[C@@H](CCCCN)C(=O)N[C@@H](CC(C)C)C(=O)N[C@@H](CC(C)C)C(N)=O (H-KLLKRIKKLL-NH2)"
readout_type = "HC50"
measured_result = 193


Alright, here's another compound for you.
Prompt: Consider the compound shown here: CC[C@H](C)[C@H](NC(=O)[C@H](CCCCN)NC(=O)[C@@H](NC(=O)[C@H](CCCNC(=N)N)NC(=O)[C@H](CCCCN)NC(=O)[C@H](CC(C)C)NC(=O)[C@H](CC(C)C)NC(=O)CN)[C@@H](C)CC)C(=O)N[C@@H](CC(C)C)C(=O)N[C@@H](CC(C)C)C(N)=O (H-GLLKRIKILL-NH2) What is its recorded HC50?
Response: 81.8

These data points were gathered from ChEMBL document CHEMBL5608163.
